# credit: paper PMC6150378

- Measurement Description: Antioxidant assay: DPPH radical-scavenging activity
- Condition Context: DPPH method; regression using five concentrations (500, 200, 100, 50, 25 μM); 517 nm, 40 min at 30 °C
Quick list: IC50 per entry.
Enter your answer as a number in µM; do not include the unit.

Some molecules with recorded IC50:
- C[C@@H]1O[C@@H](OC[C@H]2O[C@@H](OCCc3ccccc3)[C@H](O)[C@@H](O)[C@@H]2O)[C@H](O)[C@H](O)[C@H]1O [Compound 6, phenethyl-O-rutinoside]: 275
- OC[C@H]1O[C@@H](OCCc2ccccc2)[C@H](O)[C@@H](O)[C@@H]1O [Compound 4, phenethyl-O-β-D-glucopyranoside]: 282

## Input Let me know recorded IC50 for OC[C@H]1O[C@@H](OC[C@H]2O[C@@H](OCCc3ccccc3)[C@H](O)[C@@H](O)[C@@H]2O)[C@H](O)[C@@H](O)[C@@H]1O [Compound 5, phenethanol-β-D-gentiobioside] , thanks.
## Output 257

## Input Return value of IC50 for input "COc1cc(O[C@@H]2O[C@H](CO)[C@@H](O)[C@H](O)[C@H]2O)cc2c1C(=O)C[C@@H](c1ccc(O)cc1)O2" , no commentary.
## Output 83.2

## Input Query IC50 for O=C1O[C@H]([C@@H](O)CO)C(O)=C1O [L-ascorbic acid, reference compound]
## Output 33.9

###

- Target Or System: ovine COX-1 (Ovis aries, UniProt P05979)
- Sequence (P05979 25-600): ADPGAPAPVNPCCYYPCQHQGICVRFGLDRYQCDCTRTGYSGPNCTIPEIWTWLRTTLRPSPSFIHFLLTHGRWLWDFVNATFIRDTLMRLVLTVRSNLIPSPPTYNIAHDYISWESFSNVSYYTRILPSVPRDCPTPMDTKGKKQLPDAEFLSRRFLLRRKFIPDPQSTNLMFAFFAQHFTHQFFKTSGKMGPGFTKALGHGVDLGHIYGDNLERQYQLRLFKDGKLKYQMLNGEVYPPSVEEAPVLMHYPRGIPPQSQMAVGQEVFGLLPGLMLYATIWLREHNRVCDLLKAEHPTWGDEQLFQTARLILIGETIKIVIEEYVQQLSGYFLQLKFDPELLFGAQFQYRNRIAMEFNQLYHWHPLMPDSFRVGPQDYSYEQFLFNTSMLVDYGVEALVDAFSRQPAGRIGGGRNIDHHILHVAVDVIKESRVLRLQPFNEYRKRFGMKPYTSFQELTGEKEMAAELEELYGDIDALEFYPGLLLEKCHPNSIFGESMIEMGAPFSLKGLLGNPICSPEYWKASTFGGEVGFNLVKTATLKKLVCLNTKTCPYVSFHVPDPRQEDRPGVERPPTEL
Metric: pIC50
Remember the convention: pIC50 equals -log10 of concentration in molar.

* OC[C@H]1O[C@@H](OCCc2ccccc2)[C@H](O)[C@@H](O)[C@@H]1O [Compound 4, phenethyl-O-β-D-glucopyranoside] | 4.81
* OC[C@H]1O[C@@H](OC[C@H]2O[C@@H](OCCc3ccccc3)[C@H](O)[C@@H](O)[C@@H]2O)[C@H](O)[C@@H](O)[C@@H]1O [Compound 5, phenethanol-β-D-gentiobioside] | 4.42

## Input State recorded pIC50 with ovine COX-1 (Ovis aries, UniProt P05979), entry C[C@@H]1O[C@@H](OC[C@H]2O[C@@H](OCCc3ccccc3)[C@H](O)[C@@H](O)[C@@H]2O)[C@H](O)[C@H](O)[C@H]1O [Compound 6, phenethyl-O-rutinoside] , no comment.
## Output 4.39

###

Listing of recorded IC50 by entry.
- Target Or System: UniProt P79208
- Sequence (P79208 17-603): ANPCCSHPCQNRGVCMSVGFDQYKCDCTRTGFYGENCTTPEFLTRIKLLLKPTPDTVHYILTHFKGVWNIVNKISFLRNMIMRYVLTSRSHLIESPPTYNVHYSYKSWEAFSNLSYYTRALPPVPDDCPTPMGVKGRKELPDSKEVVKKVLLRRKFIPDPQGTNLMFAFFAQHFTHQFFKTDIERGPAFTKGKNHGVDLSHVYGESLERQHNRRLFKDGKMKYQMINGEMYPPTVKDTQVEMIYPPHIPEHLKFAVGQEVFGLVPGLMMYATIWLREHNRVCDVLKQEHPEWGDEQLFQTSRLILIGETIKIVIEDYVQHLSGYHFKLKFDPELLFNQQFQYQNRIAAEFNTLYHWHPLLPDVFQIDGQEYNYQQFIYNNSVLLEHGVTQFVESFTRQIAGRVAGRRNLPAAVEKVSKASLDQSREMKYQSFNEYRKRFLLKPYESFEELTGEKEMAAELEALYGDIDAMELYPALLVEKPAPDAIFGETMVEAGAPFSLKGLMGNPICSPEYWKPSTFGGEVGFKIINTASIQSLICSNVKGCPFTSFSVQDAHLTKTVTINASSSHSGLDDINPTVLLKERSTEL
Report only the number, with the unit µM understood.

Solved cases below.
• C[C@@H]1O[C@@H](OC[C@H]2O[C@@H](OCCc3ccccc3)[C@H](O)[C@@H](O)[C@@H]2O)[C@H](O)[C@H](O)[C@H]1O [Compound 6, phenethyl-O-rutinoside] = 35.4
• OC[C@H]1O[C@@H](OCCc2ccccc2)[C@H](O)[C@@H](O)[C@@H]1O [Compound 4, phenethyl-O-β-D-glucopyranoside] = 38.2
• COc1cc(O[C@@H]2O[C@H](CO)[C@@H](O)[C@H](O)[C@H]2O)cc2c1C(=O)C[C@@H](c1ccc(O)cc1)O2 = 45.4

API: the following record is the query input.
## Input Please report the measured IC50 for OC[C@H]1O[C@@H](OC[C@H]2O[C@@H](OCCc3ccccc3)[C@H](O)[C@@H](O)[C@@H]2O)[C@H](O)[C@@H](O)[C@@H]1O [Compound 5, phenethanol-β-D-gentiobioside]
## Output 31.7
